src = PubChem BioAssay (NCATS)

# STUDY TARGET: Tyrosine-protein phosphatase non-receptor type substrate 1 (Homo sapiens) + Leukocyte surface antigen CD47 (Homo sapiens) (UniProt P78324+Q08722)
# Sequence (P78324 whole entry, looked up): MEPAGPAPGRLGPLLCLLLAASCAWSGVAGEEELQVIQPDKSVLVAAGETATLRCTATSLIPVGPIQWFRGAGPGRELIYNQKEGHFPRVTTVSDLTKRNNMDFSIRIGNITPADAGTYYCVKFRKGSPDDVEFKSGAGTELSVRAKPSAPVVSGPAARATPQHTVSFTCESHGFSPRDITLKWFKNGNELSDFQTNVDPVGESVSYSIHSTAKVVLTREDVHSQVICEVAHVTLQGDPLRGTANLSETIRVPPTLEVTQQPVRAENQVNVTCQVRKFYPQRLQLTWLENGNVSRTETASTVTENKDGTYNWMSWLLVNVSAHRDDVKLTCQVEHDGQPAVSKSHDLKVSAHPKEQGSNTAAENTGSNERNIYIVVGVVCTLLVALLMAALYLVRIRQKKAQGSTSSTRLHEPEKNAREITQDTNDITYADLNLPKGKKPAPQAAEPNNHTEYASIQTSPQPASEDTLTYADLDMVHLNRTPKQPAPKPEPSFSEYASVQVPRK
# Sequence (Q08722 whole entry, looked up): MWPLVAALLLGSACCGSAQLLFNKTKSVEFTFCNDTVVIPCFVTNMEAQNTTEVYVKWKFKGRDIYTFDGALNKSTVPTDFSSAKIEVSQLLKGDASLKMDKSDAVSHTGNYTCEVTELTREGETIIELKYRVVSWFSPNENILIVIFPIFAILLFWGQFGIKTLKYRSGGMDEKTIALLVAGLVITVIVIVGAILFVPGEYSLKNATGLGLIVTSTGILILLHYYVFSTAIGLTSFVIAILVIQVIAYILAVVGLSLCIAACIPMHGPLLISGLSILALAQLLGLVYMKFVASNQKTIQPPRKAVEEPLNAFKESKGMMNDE
# TEST METHOD NOTES: CD47-SIRPalpha protein protein interaction - Alpha assay qHTS validation (AID 1347059);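 further: bead proximity luminescence from CD47 binding SIRPalpha after compound preincubation with SIRPalpha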
# TEST SETTINGS: AlphaScreen CD47-His/biotin-SIRPalpha binding, LOPAC; series mostly up to 38.3 µM
Inconclusive results are not listed. The source made the active and inactive calls. The call rests on the fitted dose curve; in most records, active means well fitted inhibition curve with a large enough effect; inconclusive means small, poorly fitted or top-dose-only effect; inactive means flat fitted curve, though single readings scatter.
Classes used: y for active, n for inactive

| COMPOUND | LABEL CLASS |
| --- | --- |
| Cn1c(=O)[nH]c2ncn(C)c2c1=O | n |
| COC1(C2=NCCN2)COc2ccccc2O1 (stereo unspecified) | n |
| C=C1C[C@@]23CC[C@H]4[C@@](C)(CCC[C@@]4(C)C(=O)OC4OC(CO)C(O)C(O)C4O)[C@@H]2CC[C@]1(OC1OC(CO)C(O)C(O)C1OC1OC(CO)C(O)C(O)C1O)C3 (stereo partly specified) | n |
| CC[C@@H]1Cc2cc(O)ccc2C2=C1c1ccc(O)cc1C[C@H]2CC | n |
| Cc1nc(N=Nc2cc(S(=O)(=O)O)c3cc([N+](=O)[O-])cc(S(=O)(=O)O)c3c2)c(COP(=O)(O)O)c(C=O)c1O | n |
| CN1CC(O)C(O)C(O)C1CO (stereo unspecified) | n |
| Nc1ccc(N2C(=O)c3ccccc3C2=O)c(Cl)c1 | n |
| O=c1cc(O)cc(/C=C/c2ccc(O)c(O)c2)o1 | n |
| O=C(O)/C(=C/c1c(C(=O)O)[nH]c2cc(Cl)cc(Cl)c12)c1ccccc1 | n |
| N#CC(=C(\N)Sc1ccccc1N)/C(C#N)=C(/N)Sc1ccccc1N | n |
| O=C1Nc2ccc(I)cc2/C1=C/c1cc(Br)c(O)c(Br)c1 | y |

###

# STUDY TARGET: Lysine-specific demethylase 5B (Homo sapiens)
# TEST METHOD NOTES: Optimization screen for KDM5B Histone Demethylases FDH coupled qHTS against the LOPAC library (AID 1347166); further: 0% is about no effect
# TEST SETTINGS: KDM5B demethylation, FDH-coupled NADH fluorescence (FDH is formaldehyde dehydrogenase); at 57.5 µM (top of the series)
Results filed as inconclusive are left out.
compounds and their reported activity, negative = inhibition

| COMPOUND | STUDY TARGET | activity, negative = inhibition (%) |
| --- | --- | --- |
| CC1=C(/C=C/C(C)=C/C=C/C(C)=C\C(=O)O)C(C)(C)CCC1 | Lysine-specific demethylase 5B (Homo sapiens) | -15.4 |
| CCCCCCCCCC(=O)NC(CN1CCOCC1)[C@H](O)c1ccccc1 (stereo not given in full) | Lysine-specific demethylase 5B (Homo sapiens) | -9.31 |
| CCCCS(=N)(=O)CC[C@H](N)C(=O)O (stereo not given in full) | Lysine-specific demethylase 5B (Homo sapiens) | -2.9 |
| CCN1C(=O)C=CC1=O | Lysine-specific demethylase 5B (Homo sapiens) | -3.85 |
| C=CC[C@H](N)C(=O)O | Lysine-specific demethylase 5B (Homo sapiens) | -4.4 |
| CC(N)=O | Lysine-specific demethylase 5B (Homo sapiens) | -7.02 |
| CCC(=O)N1CCN(C(=O)c2ccccc2)CC1 | Lysine-specific demethylase 5B (Homo sapiens) | 3.19 |
| C=C1C(=O)O[C@@H]2[C@H]3O[C@]3(C)CCC=C(C)CC[C@@H]12 | Lysine-specific demethylase 5B (Homo sapiens) | -8.83 |
| COCc1nc2c([nH]1)c(=O)n(C)c(=O)n2CC(C)C | Lysine-specific demethylase 5B (Homo sapiens) | -5.87 |
| NC(N)=[N+]1CCc2ccccc2C1 | Lysine-specific demethylase 5B (Homo sapiens) | 2.33 |
| CN(C)CCCc1cc(C(=O)Nc2ccc(-c3ccncc3)cc2)ccc1O | Lysine-specific demethylase 5B (Homo sapiens) | -5.29 |
| NC1CONC1=O (stereo not given) | Lysine-specific demethylase 5B (Homo sapiens) | -3.54 |
| C=CC1(C)CC(=O)C2(O)C(C)(O1)C(OC(C)=O)C(O)C1C(C)(C)CCC(O)C12C (stereo not given) | Lysine-specific demethylase 5B (Homo sapiens) | -2.72 |
| CC1CNCCN1S(=O)(=O)c1cccc2cnccc12 (stereo not given) | Lysine-specific demethylase 5B (Homo sapiens) | -12.8 |
| CC(=O)SC1CC2=CC(=O)CC[C@]2(C)C2CC[C@@]3(C)C(CC[C@@]34CCC(=O)O4)C12 (stereo not given in full) | Lysine-specific demethylase 5B (Homo sapiens) | 0.621 |
| CCCOC(=O)c1c(-c2ccccc2)nc(CC)c(C(=O)SCC)c1CCC | Lysine-specific demethylase 5B (Homo sapiens) | -14.4 |
| COc1ccc2c(c1)c(CC(=O)O)c(C)n2C(=O)c1ccccc1 | Lysine-specific demethylase 5B (Homo sapiens) | 5.12 |
| Nc1ncnc2c1ncn2C1CCCC1 | Lysine-specific demethylase 5B (Homo sapiens) | -3.1 |
| CC(C)NC[C@H](O)COc1ccc(CC(N)=O)cc1 | Lysine-specific demethylase 5B (Homo sapiens) | -2.87 |
| CSC(=N)N | Lysine-specific demethylase 5B (Homo sapiens) | -3.96 |
| CN1C2CCC1CC(OC(c1ccccc1)c1ccccc1)C2 (stereo not given) | Lysine-specific demethylase 5B (Homo sapiens) | -5.47 |
| COc1ccc(CCN(C)CCc2ccc(OC)c(OC)c2)cc1OC | Lysine-specific demethylase 5B (Homo sapiens) | 3.09 |
| N[C@H](C(=O)O)[C@H](O)C(=O)O | Lysine-specific demethylase 5B (Homo sapiens) | -0.47 |
| N[C@H]1CONC1=O | Lysine-specific demethylase 5B (Homo sapiens) | -4.96 |
| N#Cc1cc2nc(O)c(O)nc2cc1[N+](=O)[O-] | Lysine-specific demethylase 5B (Homo sapiens) | -14.6 |
| Cn1c(=O)[nH]c2ncn(C)c2c1=O | Lysine-specific demethylase 5B (Homo sapiens) | -3.98 |
| N=C(N)c1ccccc1 | Lysine-specific demethylase 5B (Homo sapiens) | -3.44 |
| NC(Cc1cccc(-c2ccccc2CP(=O)(O)O)c1)C(=O)O (stereo not given) | Lysine-specific demethylase 5B (Homo sapiens) | -9.93 |
| C=C1C[C@@]23CC[C@H]4[C@@](C)(CCC[C@@]4(C)C(=O)O)[C@@H]2CC[C@]1(O)C3 | Lysine-specific demethylase 5B (Homo sapiens) | -2.05 |
| CC(C)Cn1c(=O)n(C)c(=O)c2[nH]cnc21 | Lysine-specific demethylase 5B (Homo sapiens) | -4.21 |
